experimental-protocol: in vivo
assay-context: female, rat, 2.5 mg
parameter: level at 0.25 h (ng/mL)

[P] CC(C)C[C@H](NC(=O)CNC(=O)[C@H](Cc1ccc(O)cc1)NC(=O)[C@H](CO)NC(=O)[C@H](Cc1c[nH]c2ccccc12)NC(=O)[C@H](Cc1cnc[nH]1)NC(=O)[C@@H]1CCC(=O)N1)C(=O)N[C@@H](CCCNC(=N)N)C(=O)N1CCC[C@H]1C(=O)NCC(N)=O
[Q] CC(C)C[C@H](NC(=O)CNC(=O)[C@H](Cc1ccc(O)cc1)NC(=O)[C@H](CO)NC(=O)[C@H](Cc1c[nH]c2ccccc12)NC(=O)[C@H](Cc1cnc[nH]1)NC(=O)[C@@H]1CCC(=O)N1)C(=O)N[C@@H](CCCN=C(N)N)C(=O)N1CCC[C@H]1C(=O)NCC(=O)O
Which shows the larger level at 0.25 h value: P or Q ? # respond with the chosen item's label P
